details: in propylene glycol, 303.2 K
measurement_label: solubility (mole fraction)

Task: solubility (mole fraction) lookup needed for Cn1c([N+](=O)[O-])cnc1N1CCN(S(C)(=O)=O)C1=O , thanks.
Output: 0.00347

====

conditions: in formamide, 308.2 K
measurement_label: solubility (mole fraction)

Task: Tell me the measured solubility (mole fraction) of Cn1c([N+](=O)[O-])cnc1N1CCN(S(C)(=O)=O)C1=O , please.
Output: 0.0938

====

conditions: in PEG-200, 298.2 K
measurement_label: solubility (mole fraction)

Task: Query: solubility (mole fraction); subject: Cn1c([N+](=O)[O-])cnc1N1CCN(S(C)(=O)=O)C1=O
Output: 0.011

Values compiled from BigSolDB 2.1.
